Numbers sourced from paper PMC12333015.

# system: mGlu7/Elfn1 (Rattus norvegicus, UniProt P35400)
# Construct: expressed in transfected cells; host or cells: HEK293A mGlu7/GIRK cells cocultured with HEK293A polyclonal cells stably expressing Elfn1-Myc (pcDNA3)
# Sequence (P35400 35-915): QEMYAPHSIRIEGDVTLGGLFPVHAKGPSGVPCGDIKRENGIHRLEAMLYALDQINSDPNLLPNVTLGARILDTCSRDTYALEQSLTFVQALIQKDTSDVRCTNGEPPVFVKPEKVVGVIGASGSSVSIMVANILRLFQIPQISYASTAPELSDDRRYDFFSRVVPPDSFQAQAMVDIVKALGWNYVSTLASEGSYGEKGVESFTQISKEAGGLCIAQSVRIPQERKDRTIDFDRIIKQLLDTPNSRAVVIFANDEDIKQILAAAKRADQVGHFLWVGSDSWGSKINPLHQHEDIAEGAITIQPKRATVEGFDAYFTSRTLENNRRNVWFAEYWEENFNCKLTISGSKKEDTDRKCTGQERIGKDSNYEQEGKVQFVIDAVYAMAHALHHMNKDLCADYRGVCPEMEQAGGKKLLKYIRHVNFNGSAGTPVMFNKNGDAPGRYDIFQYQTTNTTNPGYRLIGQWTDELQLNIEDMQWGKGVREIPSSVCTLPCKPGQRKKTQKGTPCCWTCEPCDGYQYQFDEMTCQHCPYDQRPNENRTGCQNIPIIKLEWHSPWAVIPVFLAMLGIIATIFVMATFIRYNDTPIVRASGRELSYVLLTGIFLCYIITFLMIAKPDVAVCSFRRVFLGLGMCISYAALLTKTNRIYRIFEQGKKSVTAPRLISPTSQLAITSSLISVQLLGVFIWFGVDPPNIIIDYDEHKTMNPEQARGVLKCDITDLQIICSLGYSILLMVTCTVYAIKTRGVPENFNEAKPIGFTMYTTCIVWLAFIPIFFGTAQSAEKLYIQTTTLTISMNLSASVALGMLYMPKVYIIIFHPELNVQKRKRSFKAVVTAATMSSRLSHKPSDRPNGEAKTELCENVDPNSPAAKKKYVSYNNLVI
# Sequence (Q8C8T7 26-828 partner): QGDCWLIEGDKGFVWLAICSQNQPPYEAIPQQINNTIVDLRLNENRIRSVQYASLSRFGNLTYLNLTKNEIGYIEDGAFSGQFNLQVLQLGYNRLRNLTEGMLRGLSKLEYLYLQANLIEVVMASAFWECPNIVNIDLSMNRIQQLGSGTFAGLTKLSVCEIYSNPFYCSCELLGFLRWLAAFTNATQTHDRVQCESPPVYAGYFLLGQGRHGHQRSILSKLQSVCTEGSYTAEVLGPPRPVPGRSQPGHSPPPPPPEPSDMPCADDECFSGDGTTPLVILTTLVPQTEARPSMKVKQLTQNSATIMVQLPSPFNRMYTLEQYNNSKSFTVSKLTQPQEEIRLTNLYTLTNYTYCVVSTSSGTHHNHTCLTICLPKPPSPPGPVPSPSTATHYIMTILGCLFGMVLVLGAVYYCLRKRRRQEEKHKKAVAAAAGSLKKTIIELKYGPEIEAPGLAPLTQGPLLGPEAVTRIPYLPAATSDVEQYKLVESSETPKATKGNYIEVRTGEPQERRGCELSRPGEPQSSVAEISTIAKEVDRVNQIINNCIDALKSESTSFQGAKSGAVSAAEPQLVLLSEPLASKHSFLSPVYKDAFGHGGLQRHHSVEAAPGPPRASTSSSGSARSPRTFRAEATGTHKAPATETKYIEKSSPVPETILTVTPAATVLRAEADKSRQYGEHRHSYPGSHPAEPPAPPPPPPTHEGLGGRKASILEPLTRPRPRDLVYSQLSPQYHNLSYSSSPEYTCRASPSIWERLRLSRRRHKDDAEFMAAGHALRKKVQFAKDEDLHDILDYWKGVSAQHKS
# test description: Thallium flux assay, mGlu7/GIRK HEK293 cells cocultured with Elfn1-expressing cells
# Format: cell-based, mouse Elfn1
# cond: L-AP4 pEC50 ± SEM, Elfn1, DMSO vehicle, agonist alone (DMSO row of Table 2)
# Procedure: We began our evaluation of mGlu7 ligands in the presence and absence of Elfn1 by using a coculture system as previously described , with several modifications (Figure ). […] We then evaluated the activity of the orthosteric agonist L-AP4 and measured effects on maximal response and pEC50. […] Thallium flux assays were performed as previously described. […] Potency (pEC50) and maximum responses (E max) induced by compounds were determined using a four-parameter logistical equation in Prism.
measured metric: EC50 (µM)
Just the number in µM, nothing appended.

Given the molecule N[C@@H](CCP(=O)(O)O)C(=O)O [L-AP4, L-2-amino-4-phosphonobutyric acid, reference compound] , what is its reported EC50?
324
